The following molecules are shown together with reported melting point values.

As a guide, the following entries are already answered.
The molecule listed as CCCCCCCCCCCC(O)CC1=CC(=O)CCC1 (stereo not shown) [Preparation Example 4] has a reported melting point of 42 to 43 °C

The molecule listed as CCCCCCCCCCC(O)C1=CC(=O)CCC1 (stereo not shown) [Preparation Example 2, 3-(1-hydroxy-undecyl)-2-cyclohexen-1-one] has a reported melting point of 34 to 35 °C

The molecule listed as O=C1C=C(CCCCCCCCCCCCCCO)CCC1 [Preparation Example 5] has a reported melting point of 44 to 45 °C

Okay, now this molecule:
The molecule listed as O=C1C=C(CCCCCCCCCCCCO)CCC1 [Preparation Example 3] has a reported melting point of 35 to 36 °C

Data provenance: patent US7166642B1
